B1: Osa-1-4 twister ribozyme (parent)
chain: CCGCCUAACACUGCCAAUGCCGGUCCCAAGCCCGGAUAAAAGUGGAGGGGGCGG

- Variants of: B1
- PROCEDURE DETAILS: self-cleavage, relative activity (ratio to wild type); higher = more cleavage; co-transcriptional
Please use criterion met whenever self-cleavage is not below 0.1, and criterion not met whenever it is.

query_sequence="CCGCCUAACACUGCCAAUGCCGGUCCCAAGCCCGGAUACAAGUGGAGUGGGCGG [A39C G48U]" assigned_label="criterion not met"
query_sequence="CCGCCUAACACUUCCAAUGCCGGUCCCAAGCCCGGAUAUAAGUGGAGGGGGCGG [A39U G13U]" assigned_label="criterion not met"
query_sequence="CCGCCUAACACUGCCAAUGCCGGUGCCAAGCUCGGAUAAAAGUGGAGGGGGCGG [C25G C32U]" assigned_label="criterion not met"
query_sequence="CCGCCUAACACUGCCAAUGCCGGACCCAAGCCCGGAUAAAAGUGGAGGGGGCGU [G54U U24A]" assigned_label="criterion met"
query_sequence="CCGCCUAACACUGCCAAUGCCGGACCCAAGCCCGGAUAGAAGUGGAGGGGGCGG [A39G U24A]" assigned_label="criterion not met"
query_sequence="CCGCCUAACACUGCCAAUGCCGGACCCAAGCCCUGAUAAAAGUGGAGGGGGCGG [G34U U24A]" assigned_label="criterion met"
query_sequence="CCGCCUAACACUGCCAAUGUCGGUCCCAAGCCCGGAUAAAAGUCGAGGGGGCGG [C20U G44C]" assigned_label="criterion met"
query_sequence="CCGCCUAACAAUGCCAAUGGCGGUCCCAAGCCCGGAUAAAAGUGGAGGGGGCGG [C11A C20G]" assigned_label="criterion not met"
query_sequence="CCGCCUAACACCGCCAAUGCCGGUCCCAAGCCCGGAUAAAAGUGGAAGGGGCGG [G47A U12C]" assigned_label="criterion not met"
query_sequence="CCGCCUAACUCUGCCAAUGCCGGUCCCAAGCCCGGAUAAAAGUGGAGGGGGAGG [A10U C52A]" assigned_label="criterion not met"
query_sequence="CCGCCUAACACUGCCAAUGCCGAUCUCAAGCCCGGAUAAAAGUGGAGGGGGCGG [C26U G23A]" assigned_label="criterion met"
query_sequence="CCGCCUAACACUGCCAAUGCCGGUCCCAAGCCCGGAUAAAAGUGGAGCGGGCUG [G48C G53U]" assigned_label="criterion not met"
query_sequence="CCGCCUAACACUGCCAAUGCCGGUCCCAAGCCUGAAUAAAAGUGGAGGGGGCGG [C33U G35A]" assigned_label="criterion met"
query_sequence="CCGCCUAAGACUGCCAAUGCCGGUCCCAAGCCCGGAUAAAAGUGGAGGGGACGG [C9G G51A]" assigned_label="criterion met"
query_sequence="CCGCCUAACACUGCCAAUGCCGGUCCUAAGCCCGGAUAAAAUUGGAGGGGGCGG [C27U G42U]" assigned_label="criterion not met"
query_sequence="CCGCCUAACACUGCCAAUCCCGGUCCCAAGCCCGGAUAAGAGUGGAGGGGGCGG [A40G G19C]" assigned_label="criterion not met"
query_sequence="CCGCCUAACACUGCGAAUGCUGGUCCCAAGCCCGGAUAAAAGUGGAGGGGGCGG [C15G C21U]" assigned_label="criterion met"
query_sequence="CCGCCUAACCCUGCCAAUGCCGGUCCCAAGCCCGGAUAAUAGUGGAGGGGGCGG [A10C A40U]" assigned_label="criterion not met"
